The reported measurements were obtained from ChEMBL document CHEMBL3232981.

The entries below are paired with their reported pEC50.
# protocolSummary: Inhibition of Nav in mouse Neuro-2a cells assessed as inhibition of ouabain and veratridine-induced cytotoxicity after 24 hrs by WST-8 assay
# Format: cell-based
pEC50: −log10 of the molar value.
assayReadout: pEC50

1. NC1=N[C@H](O)[C@H]2[C@H]3O[C@]4(O)O[C@@H]([C@@H](O)[C@@]2(N1)[C@@H]4O)[C@]3(O)CO : 8.68
2. C[C@]1(O)[C@@H]2O[C@]3(O)O[C@H]1[C@@H](O)[C@@]1(NC(=N)N[C@H](O)[C@@H]21)[C@@H]3O : 6.89
3. N=C1N[C@H](O)[C@H]2[C@H]3O[C@]4(O)O[C@H]([C@@H]3CO)[C@@H](O)[C@@]2(N1)[C@@H]4O : 8.19
4. C[C@H]1[C@H]2O[C@@]3(O)O[C@@H]1[C@@H]1[C@@H](O)NC(=N)N[C@]1([C@@H]2O)[C@@H]3O : 6.40
